Property: pEC50; scope: individual binders
- subject_of_test: GST-HttExon1Q21 (recombinant huntingtin exon 1 protein with 21 polyQ repeats fused to an N-terminal GST tag) (;human, UniProt P08515 1-218 = GST; P42858 1-88)
- Sequence (P08515 1-218, tags or fused parts left off): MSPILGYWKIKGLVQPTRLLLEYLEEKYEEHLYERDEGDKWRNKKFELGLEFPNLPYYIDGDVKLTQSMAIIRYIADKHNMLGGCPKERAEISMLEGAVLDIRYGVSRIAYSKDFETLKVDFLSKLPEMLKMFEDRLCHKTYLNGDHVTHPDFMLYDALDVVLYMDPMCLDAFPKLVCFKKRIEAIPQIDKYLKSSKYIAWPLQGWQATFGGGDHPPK
- test_protocol: ELISA
Entry type: numeric. Quantity: pEC50, the -log10 of concentration in molar units.

GET /values?readout=pEC50&item= NI-302.18A1 (antibody, V domains shown) VH: QLQLQESGPGLVKPSEALSLTCTVSGGSITTDYYYWGWIRQSPGKGLEWVGTIYFGGATYYNPSLRNRVSISVDTSNTRLSLRLISLSAADTAVYYCARVGYLDRSGLLVGQGTLVTVSS VL: EIVLTQSPLSVPVTPGEPASISCRSSQSLLHNNGYNYLDWYLKKPGQSPQLLIYLGSTRASGVPDRFSASGSGTDFTLEISRVEAEDVGVYYCMQALQTPPTFGRGTKVEIK
10.40

GET /values?readout=pEC50&item= NI-302.8F1 (antibody, V domains shown) VH: EVQLVESGGGLVKPGGSLTISCAASGFTFSNAWMNWVRQAPGKGLEWVGHIRTQAEGGTSDYAAPVKGRFTISRDDSKNTLYLQMNSLKTEDTAVYYCIPPPYYYYYGLDVWGQGTTVTVSS VL: QSALTQPASVSGSPGQSITISCTGASSDVGTYDLVSWYQQHPGKAPKLIIYEVNKRPSGVSYRFSASKSANTASLTISGLQAEDEAEYYCCSYAGYSTVFGGGTKLTVL
9.10

***
GET /values?readout=pEC50&item= NI-302.71F6 (antibody, V domains shown) VH: QVQLQQWGAGLLKPSETLSLTCAVYGGSLSGYYWSWIRQPPGKGLEWIGEVNHSGGTNLNSSLKSRVIISVDKSKKQFSLKLSSVTAADTAMYFCARGYSYDPKYYFDSWSQGTLVTVSS VL: QSALTQPASVSGSPGQAITISCTGTSSDIGSYDFVSWYQQDPGKAPKVIIYGVNKRPSGVSNRFSGSKSGNTASLTISGLQADDEADYYCCSYAGSTTWVFGGGTKLTVL
8.52

GET /values?readout=pEC50&item= NI-302.22H9 (antibody, V domains shown) VH: EVQLVESGGGLVHPWGSLRVSCAASGFSVSNYAITWVRQAPGKGLEYISVIYRDGRTYYGDSVRGRFTISRDDSKNTIYLQMNSLRFEDTAVYYCARAHGQYYYGVDVWGQGTTVTVSS VL: DVVMTQSPLSLSVSPGEPASISCRSSQSLLHSNGYNYLDWYRQKPGQSPQLLIYLNSNRASGVPDRFSGSGSGTEFTLTISRVEAEDVGVYYCMQSLQTFTFGGGTKVEIK
8.80

Sourced from patent US20170166631A1
